tested on: OVCAR-4 ovarian; test: NCI-60 one-dose screen, 48 h (100 = growth as untreated, 0 = no growth, -100 = all killed); details: 10 µM unless noted
The panel holds about 83,000 compounds, 20% with a hit somewhere; the sample as a whole holds those more often.
Param label: returns class 1 when growth < 70%, returns class 0 otherwise, including exact equality.

Reference set (10 entries):
input: Does CCOC(=O)/C=C1\S/C(=N\Nc2cc(=O)[nH]c3ccccc23)N(c2ccccc2)C1=O have growth strictly under 70%?
output: class 0

input: Does this compound meet the criterion growth < 70%? Cc1nn(-c2ccccc2)c(N)c1N=C1NC(=O)/C(=C/c2ccc(Br)cc2)S1
output: class 0

input: growth under 70%? Item: CCN(CC)CCN1C(=O)c2c(c(C)c3c(oc4ccc(O)cc43)c2C)C1=O
output: class 1

input: Threshold test, growth < 70%: NC(=O)c1cccc([C@@H]2O[C@H](CO)[C@@H](O)[C@H]2O)c1
output: class 1

input: For CCOc1ccc(-n2nc(C(=O)NCc3ccccc3OC)nc2-c2cc(OC)c(OC)c(OC)c2)cc1 , is the recorded growth below the cut-off of 70%?
output: class 1

input: Identify whether the compound COc1ccccc1C(=O)Nc1cccc(NC(=O)c2ccoc2C)c1 records growth below 70%.
output: class 0

input: A record lists C=C1CC[C@@H]2C(C)(C)[C@@H](O)CC[C@@]2(C)[C@@H]1COc1ccc2ccc(=O)oc2c1 . Is its growth below 70%?
output: class 1

input: Please let me know if CN1C(=O)/C(=C2\SC(=Nc3ccccc3)N(Nc3ccccc3)C2=O)c2ccccc21 shows growth below 70%.
output: class 0

input: A record lists COc1ccc(C2=CC(c3cc(OC)c(OC)c(OC)c3)n3ncnc3N2)cc1 (stereo not given) . Is its growth below 70%?
output: class 1

input: Does this compound meet the criterion growth < 70%? COC(=O)C(Cc1ccccc1)NC(=O)c1ccc(NC(=O)c2[nH]c(C)c(Cl)c2Cl)c(OC(C)C)c1 (stereo not given)
output: class 1

Now examine the next entry.
input: Strictly below 70%: is that where growth of Cc1cccc(N2CCC(=O)NC2=S)c1 sits?
output: class 0
